Biological target: Cytochrome P450 3A4 (Homo sapiens, UniProt P08684);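 further: CYP3A4 tested as one member of a cytochrome P450 panel screen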
Sequence (P08684 whole entry): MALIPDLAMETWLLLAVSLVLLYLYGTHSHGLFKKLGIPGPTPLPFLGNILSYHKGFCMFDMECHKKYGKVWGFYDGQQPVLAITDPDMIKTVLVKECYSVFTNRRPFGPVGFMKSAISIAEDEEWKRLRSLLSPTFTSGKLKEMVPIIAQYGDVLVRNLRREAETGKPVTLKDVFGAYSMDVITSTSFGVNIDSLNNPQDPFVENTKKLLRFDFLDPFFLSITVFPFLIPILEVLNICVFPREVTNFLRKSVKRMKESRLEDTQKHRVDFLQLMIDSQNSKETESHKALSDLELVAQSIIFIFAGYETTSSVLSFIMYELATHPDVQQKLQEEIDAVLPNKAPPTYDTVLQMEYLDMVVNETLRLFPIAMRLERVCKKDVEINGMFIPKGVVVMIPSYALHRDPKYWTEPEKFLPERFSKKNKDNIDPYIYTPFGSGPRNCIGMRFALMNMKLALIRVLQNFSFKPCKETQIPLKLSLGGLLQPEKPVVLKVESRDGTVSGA
measurement.kind: AC50

- smiles.record: "Cc1c(OC(=O)c2ccc([N+](=O)[O-])cc2)c2c(c[n+]1C)COC(C)(C)OC2"
  assay.system: "Cytochrome P450 3A4 (Homo sapiens, UniProt P08684)"
  result: "7.08 µM (inconclusive)"
- smiles.record: "CN1C[C@H](CO)C=C2c3cccc4[nH]cc(c34)C[C@@H]21"
  assay.system: "Cytochrome P450 3A4 (Homo sapiens, UniProt P08684)"
  result: "12.6 µM (inconclusive)"
- smiles.record: "CS(=O)(=O)c1ccc(-c2cc(Br)sc2-c2ccc(F)cc2)cc1"
  assay.system: "Cytochrome P450 3A4 (Homo sapiens, UniProt P08684)"
  result: "20 µM (inconclusive)"
- smiles.record: "COc1cc(/N=c2\\ssnc2Cl)cc(OC)c1OC"
  assay.system: "Cytochrome P450 3A4 (Homo sapiens, UniProt P08684)"
  result: "31.6 µM (inconclusive)"

Now turn to the next molecule.
The molecule listed as `CC(C)NC(=O)N1CCCC2(CCN(C(=O)c3cccn3C)CC2)C1` has a reported AC50 of 25.1 µM (inconclusive)

----------
Below, each entry is listed with its recorded IC50.
Biological target: Prothrombin (Bos taurus, UniProt P00735)
Test: thrombin protease inhibitors – biochemical, fluorescence polarization, uHTS hits, dose response (AID 602369)
Assay type: functional
Active and inactive are the calls of the source.

Worked examples follow.
- smiles.record: "COc1cc(/C=C2/SC(=S)N(CC(=O)Nc3nc4ccccc4s3)C2=O)cc(OC)c1OC"
  measurement.kind: "IC50"
  result: "23.5 µM (active)"
- smiles.record: "COc1cccc(/C=N/NC(=O)c2[nH]c(C)c(C(=O)N/N=C/c3cccc(OC)c3)c2C)c1"
  measurement.kind: "IC50"
  result: "> 100 µM (inactive)"
- smiles.record: "CCCCn1c(/N=C/c2ccc(N(C)C)cc2)nc2ccccc21"
  measurement.kind: "IC50"
  result: "7.12 µM (active)"

For `COc1ccc(/C=C2/SC(=S)N(CCCC(=O)Nc3ccc(O)cc3)C2=O)cc1OC` the molecule record lists IC50 as 31.8 µM (active)

For this molecule ( `CCOc1ccc(N2C(=O)/C(=C/Nc3ccnn3Cc3ccncc3)c3ccccc3C2=O)cc1` ), measured IC50 is 24.6 µM (active)

----------
Biological target: Cysteine protease ATG4B (Homo sapiens, UniProt Q9Y4P1);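 further: Fluorescence-based dose-response confirmation assay measuring inhibition of ATG4B activity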
Sequence (Q9Y4P1 whole entry): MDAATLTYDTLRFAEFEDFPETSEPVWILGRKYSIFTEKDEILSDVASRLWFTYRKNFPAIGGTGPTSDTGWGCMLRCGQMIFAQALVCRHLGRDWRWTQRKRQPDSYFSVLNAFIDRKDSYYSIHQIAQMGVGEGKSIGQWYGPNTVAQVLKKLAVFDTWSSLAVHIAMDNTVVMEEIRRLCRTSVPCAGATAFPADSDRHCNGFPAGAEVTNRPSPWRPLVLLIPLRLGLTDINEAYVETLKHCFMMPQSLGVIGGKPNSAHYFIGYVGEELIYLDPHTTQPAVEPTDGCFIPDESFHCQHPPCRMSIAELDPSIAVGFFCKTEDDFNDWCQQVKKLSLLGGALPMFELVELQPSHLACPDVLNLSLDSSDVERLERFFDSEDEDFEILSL
Assay type: functional
The source made the active and inactive calls.
measurement.kind: IC50

- smiles.record: "CCn1nc(/C=C/c2ccccc2)nc2c(=O)n(C)c(=O)nc1-2"
  IC50: "0.653 µM (active)"
- smiles.record: "Oc1c(Br)cc(Br)c(/C=N/n2c(S)nnc2-c2ccccc2)c1Br"
  IC50: "7.7 µM (active)"
- smiles.record: "CCC(CC)C1=NN2C(=N)/C(=C\\c3cc(C)n(-c4cccc(C)c4)c3C)C(=O)N=C2S1"
  IC50: "15.7 µM (active)"
- smiles.record: "O=C(O)c1cc([N+](=O)[O-])ccc1NCc1ccccc1Cl"
  IC50: "11.9 µM (active)"

Sample `Nc1ncc(Br)cc1S(=O)(=O)Nc1cc(C(F)(F)F)cc(C(F)(F)F)c1` ; IC50 observed: 8.94 µM (active)
